Data provenance: the supplement of paper PMC9588766

Test system: PDC-DUC18828
Protocol summary: cell viability relative to DMSO control (compound alone) (fraction); PDC-DUC18828 is a patient-derived cholangiocarcinoma cell line; higher = less growth inhibition
Protocol conditions: 1 µM; 72 h
Counter-ions that a name gives are not always drawn. The full ranking holds about 2,000 compounds; the median of “cell viability relative to DMSO control (compound alone)” is about 0.98, and the lowest 2% start at about 0.23. Many of the other results were omitted from the sample, so the lowest values are more common in it than they were.
So I've got a bunch of compounds here, and I need their cell viability values.
Answers are plain numbers.

Previously resolved entries follow.
CN(C)C(=O)Oc1ccc[n+](C)c1 [Pyridostigmine Bromide]    0.954
Nc1nc(N)nc(NC2CC2)n1    1.09
Fc1cc(F)c2c(c1)[C@H]1C=CC[C@H]1C(c1cccnc1)N2 (some centres undefined) [Golgicide A]    1.06
CC1=C(O)C(=O)C=C2C1=CC=C1[C@@]2(C)CC[C@@]2(C)[C@@H]3C[C@](C)(C(=O)O)CC[C@]3(C)CC[C@]12C    0.0883
CC[C@@H]1/C=C/C=C/C[C@H](C)[C@H](O)[C@](C)(O)C(=O)[C@H](C)[C@@H](O)[C@H](C)C(=O)[C@H](C)[C@@H](O)[C@H](C)/C=C/C(=O)O[C@H]2[C@@H](C)[C@@H](CC1)O[C@@]1(CC[C@@H](C)[C@@H](C[C@H](C)O)O1)[C@@H]2C    0.74

Hello, I would appreciate it if you could give cell viability for each entry below.
1. C[C@](O)(COc1ccc(C#N)cc1)C(=O)Nc1ccc(C#N)c(C(F)(F)F)c1
2. Cc1sc2c(c1C)C(c1ccc(Cl)cc1)=N[C@@H](CC(N)=O)c1nnc(C)n1-2
3. C/C(=C\c1csc(C)n1)[C@@H]1C[C@@H]2O[C@]2(C)CCC[C@H](C)[C@H](O)[C@@H](C)C(=O)C(C)(C)[C@@H](O)CC(=O)O1 [Epothilone B (EPO906, Patupilone)]
4. N#C[C@H](O[C@@H]1O[C@H](C(=O)O)[C@@H](O)[C@H](O)[C@H]1O)c1ccccc1
5. CCN(C)C(=O)Oc1cccc([C@H](C)N(C)C)c1 [Rivastigmine Tartrate]

OUTPUT:
1: 1.05; 2: 0.711; 3: 0.265; 4: 1.09; 5: 1.07

Hello, I would appreciate it if you could give cell viability for each entry below.
1. c1ccc2c(c1)sc1ccccc12
2. C[C@]12CC[C@H](O)CC1=CC[C@@H]1[C@@H]2CC[C@]2(C)C(=O)CC[C@@H]12 [Dehydroepiandrosterone (DHEA)]
3. C[C@H]1CCC/C=C/[C@@H]2C[C@H](O)C[C@H]2[C@H](O)/C=C/C(=O)O1
4. C/C(=C\c1csc(C)n1)[C@@H]1C[C@@H]2O[C@@H]2CCC[C@H](C)[C@H](O)[C@@H](C)C(=O)C(C)(C)[C@@H](O)CC(=O)O1

OUTPUT:
1: 1.07; 2: 1.11; 3: 0.0224; 4: 0.244
